system: T1, VEGFR-1-Fc (UniProt P17948 27-338)
T1 construct: domain: first three Ig domains; expressed in Drosophila S2 cells, purified on Protein A sepharose; also called VEGFR-1-Fc fusion protein; not shown: Fc fragment from the Signal-pIgPlus vector
T1 sequence (P17948 27-338): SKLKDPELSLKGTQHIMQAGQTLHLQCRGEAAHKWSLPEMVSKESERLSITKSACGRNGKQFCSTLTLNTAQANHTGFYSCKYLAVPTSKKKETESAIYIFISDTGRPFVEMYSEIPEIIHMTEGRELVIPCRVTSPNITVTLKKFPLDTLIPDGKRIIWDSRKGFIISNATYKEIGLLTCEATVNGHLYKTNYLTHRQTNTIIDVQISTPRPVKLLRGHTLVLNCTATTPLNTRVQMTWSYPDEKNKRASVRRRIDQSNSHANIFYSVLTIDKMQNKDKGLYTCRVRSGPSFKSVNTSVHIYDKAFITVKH
experiment summary: receptor-Fc IP
measure: binding result

# binder, test result
rows = [
    ("74-13 (ligand) GQNHHEVVKSIDNEWRKTQCMPREVCIDVGKEFGVATNTFFKPSCVPLMRCGGCCNDEGLECVPTEESNITMQIMRITVPLSQGPKPVTISFANHTSCRCMSKLD", "no binding"),
    ("23-14 (ligand) AHYNTEILKSIDNEWRKTQCMPREVCIDVGKEYPDEIEYIFKPPCVSVYRCGGCCNDEGLECMNTSTSYLSKTLFEITVPLSQGPKPVTISFANHTSCRCMSKLD", "no binding"),
    ("53-9 (ligand) AHYNTEILKSIDNEWRKTQCMPIETLVDIFQEYPDEIEYIFKPPCVSVYRCGGCCNDEGLECVPTEESNITMQIMRITVPLSQGPKPVTISFLQHNKCECRPKKD", "no binding"),
    ("32-13 (ligand) GQNHHEVVKSIDNEWRKTQCMPIETLVDIFQEFGVATNTFFKPPCVSVYRCGGCCNDEGLECVPTEESNITMQIMRITVPLSQGPKPVTISFANHTSCRCMSKLD", "no binding"),
    ("83-9 (ligand) AHYNTEILKFMDVYQRSYCHPIETLVDIFQEYPDEIEYIFKPPCVSVYRCGGCCNDEGLECVPTEESNITMQIMRITVPLSQGPKPVTISFLQHNKCECRPKKD", "binds"),
    ("53-11 (ligand) AHYNTEILKSIDNEWRKTQCMPIETLVDIFQEYPDEIEYIFKPPCVSVYRCGGCCNSEGLQCVPTEESNITMQIMRITVPLSQGPKPVTISFLQHNKCECRPKKD", "no binding"),
]

Cited source: patent US20080058263A1
